- tgt: native soluble IL-6R in human plasma (human, UniProt P08887)
- assay-overview: ELISA 1, periplasmic extract; competitor IL-6; human plasma
measurement-type: OD450 ratio sample/blank

The examples below pair each entry with its known result.
binder: IL6RPMP107A9 (VHH) VHH: EVQLVESGGGLVQAGGSLRLSCAASGGIFSDMFMGWFRQAPGKSRESVARISPSGNTFYQDSVRGRFTISTDNAKNTVYLQMNNLKPEDTAVYYCAANVGVTGSYEYWGQGTQVTVSS
OD450 ratio sample/blank: 1.08
--
binder: IL6RPMP101D1 (VHH) VHH: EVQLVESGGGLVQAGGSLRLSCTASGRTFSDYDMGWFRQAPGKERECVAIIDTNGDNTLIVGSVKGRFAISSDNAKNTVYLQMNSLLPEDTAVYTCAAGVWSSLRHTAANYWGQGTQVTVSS
OD450 ratio sample/blank: 0.812

1: IL6RPMP101D2 (VHH) VHH: EVQMVESGGGLVQAGGSLRLSCAASGFAFDDYAIGWFRQAPGKEREGVSSISSSNGNTYYADSVRGRFTISSDNAKNTVYLQMNSLKPEDAGVYYCAAIWGIFFNEKMPVGAYDYWGQGTQVTVSS
2: IL6RPMP100A6 (VHH) VHH: EVQLVESGGGLVQAGDSLRLSCLASGRSFKDDAMGWFRQAPGKEREFVSGIDWRGNIVDAESVKGRFTISRENAKNTLYLQMNHLKPEDTAVYYCAASSVFSDLRYRKNPKYWGQGTQVTVSS
Request: // max by OD450 ratio sample/blank over [ 1 , 2 ] Answer format: the label of the selected item.
Result: 2
